# Study system: Stp1 (UniProt B3LFK1)
# Sequence: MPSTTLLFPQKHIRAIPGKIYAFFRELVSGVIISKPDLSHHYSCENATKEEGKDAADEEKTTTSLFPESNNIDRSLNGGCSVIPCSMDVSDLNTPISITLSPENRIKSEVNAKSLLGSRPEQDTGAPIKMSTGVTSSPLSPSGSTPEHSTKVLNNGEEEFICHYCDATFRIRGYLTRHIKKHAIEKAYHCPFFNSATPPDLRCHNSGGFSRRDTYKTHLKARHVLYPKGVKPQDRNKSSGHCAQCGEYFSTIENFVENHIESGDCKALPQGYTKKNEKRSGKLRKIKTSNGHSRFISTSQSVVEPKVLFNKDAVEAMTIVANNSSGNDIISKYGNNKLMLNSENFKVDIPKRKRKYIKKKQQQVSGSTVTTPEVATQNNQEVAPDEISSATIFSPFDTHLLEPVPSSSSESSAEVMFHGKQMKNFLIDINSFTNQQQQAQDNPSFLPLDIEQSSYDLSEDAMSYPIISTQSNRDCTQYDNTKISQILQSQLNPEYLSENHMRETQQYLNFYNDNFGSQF
# Test protocol: PBM E-score (8-mer binding enrichment) (E-score (-0.5 to 0.5)); higher = stronger / more preferred TF binding
# Experimental conditions: protein concentration: 200 nM; construct: GST-full length
Over roughly 33,000 sequences, “E-score (-0.5 to 0.5)” has its median near -0.016; the highest 2% begin near 0.32. Many of the other results were omitted from the sample, so the highest values are more common in it than they were.

| Sequence text | Study system | PBM E-score |
| --- | --- | --- |
| CGCCGTGA | Stp1 (UniProt B3LFK1) | 0.376 |
| GCTGCCAC | Stp1 (UniProt B3LFK1) | 0.0537 |
| CAATCCAC | Stp1 (UniProt B3LFK1) | -0.128 |
| AAATAAGG | Stp1 (UniProt B3LFK1) | 0.0174 |
| CCCGGTTA | Stp1 (UniProt B3LFK1) | -0.0439 |
| ATCAGTTG | Stp1 (UniProt B3LFK1) | 0.00725 |
| CCCCGTGA | Stp1 (UniProt B3LFK1) | -0.14 |
| CTCCCTGC | Stp1 (UniProt B3LFK1) | -0.293 |
| AAGAGCGA | Stp1 (UniProt B3LFK1) | -0.231 |
| CACCGTGA | Stp1 (UniProt B3LFK1) | -0.114 |
| ACCTAGCC | Stp1 (UniProt B3LFK1) | -0.186 |

---

# Study system: Stp1 (UniProt B3LFK1)
# Sequence: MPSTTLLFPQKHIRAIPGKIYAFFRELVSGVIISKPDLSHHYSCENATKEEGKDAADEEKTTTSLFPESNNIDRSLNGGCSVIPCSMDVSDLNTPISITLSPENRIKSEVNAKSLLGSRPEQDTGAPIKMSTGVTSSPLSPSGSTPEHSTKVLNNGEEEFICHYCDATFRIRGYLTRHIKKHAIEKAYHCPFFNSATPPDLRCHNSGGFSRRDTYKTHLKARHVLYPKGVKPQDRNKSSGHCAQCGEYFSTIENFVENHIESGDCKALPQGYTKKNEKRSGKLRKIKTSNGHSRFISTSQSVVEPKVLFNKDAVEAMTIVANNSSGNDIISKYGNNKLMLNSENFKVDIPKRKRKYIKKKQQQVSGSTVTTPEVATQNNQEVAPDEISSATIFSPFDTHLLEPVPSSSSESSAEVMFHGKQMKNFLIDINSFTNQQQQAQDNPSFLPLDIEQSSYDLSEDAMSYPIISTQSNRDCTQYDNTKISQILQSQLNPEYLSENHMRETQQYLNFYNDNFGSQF
# Test protocol: PBM E-score (8-mer binding enrichment) (E-score (-0.5 to 0.5)); higher = stronger / more preferred TF binding
# Experimental conditions: protein concentration: 200 nM; construct: GST-full length
Whole data set: some 33,000 sequences, median “E-score (-0.5 to 0.5)” near -0.016, cut for the highest 2% near 0.32. The sample as a whole holds a higher share of the highest values than the screen did.
Measured metric: PBM E-score

| Sequence text | Measured metric | Obs value |
| --- | --- | --- |
| CGCGCTAA | PBM E-score | 0.227 |
| CCGCCCCG | PBM E-score | 0.273 |
| AGGATATG | PBM E-score | 0.0335 |
| AATTCTGA | PBM E-score | 0.131 |
| ATCGGCGC | PBM E-score | 0.342 |
| GGCATCGA | PBM E-score | 0.327 |
| ATCGGCGA | PBM E-score | 0.0557 |
| CGGGTGGA | PBM E-score | -0.162 |
| AAGCTCAA | PBM E-score | -0.135 |
| GAAAAGAA | PBM E-score | 0.0978 |
| AAGCTGTG | PBM E-score | -0.106 |
| AGAACGCA | PBM E-score | -0.00423 |
| ACTCGATC | PBM E-score | -0.0856 |
| ACCGTCGC | PBM E-score | 0.0157 |
| GGCGCTGA | PBM E-score | 0.327 |
| AAAGTGCC | PBM E-score | 0.201 |
| ATGCGGAG | PBM E-score | -0.0518 |
| TGCGCTAA | PBM E-score | -0.0463 |
| AAGGGCGC | PBM E-score | 0.354 |
| CGGCTTAA | PBM E-score | 0.318 |
| CCCGTCCC | PBM E-score | -0.249 |
| CCATACGC | PBM E-score | 0.0591 |
| AACTAACC | PBM E-score | 0.117 |
| GGGCACTA | PBM E-score | 0.23 |
| CTCGGCGC | PBM E-score | 0.382 |
| ACGGGTTG | PBM E-score | -0.0319 |
| CGGCTTCC | PBM E-score | 0.211 |
| CTGCACTC | PBM E-score | 0.109 |
| ATGCGGTG | PBM E-score | -0.103 |
| CTCAGTCC | PBM E-score | -0.195 |
| GCAGAAAC | PBM E-score | 0.234 |
| TGATTCCA | PBM E-score | -0.0134 |
| GACGCCCC | PBM E-score | -0.00392 |
| ATGCGGTC | PBM E-score | 0.0837 |
| AGCGCTGA | PBM E-score | -0.0259 |
| ATTGTGCC | PBM E-score | 0.322 |
| GAAACCTA | PBM E-score | -0.22 |
| CAGTGTCA | PBM E-score | 0.0177 |
| ATGCGGCC | PBM E-score | 0.331 |
| GCACTAAC | PBM E-score | 0.042 |
| AGGGGGGG | PBM E-score | -0.287 |
| TCCGAAAA | PBM E-score | -0.159 |
| GAAGAGGA | PBM E-score | -0.286 |
| AACACCCG | PBM E-score | 0.151 |
| AAGTCCGT | PBM E-score | -0.0471 |
| GCGTACAA | PBM E-score | 0.167 |
| CAGGGCGA | PBM E-score | 0.0902 |
| AATGTGCC | PBM E-score | 0.323 |
| CAGGGCGC | PBM E-score | 0.363 |
| AGCATCGA | PBM E-score | -0.0592 |
| GGGCCTCA | PBM E-score | -0.0568 |
| TCGTACAA | PBM E-score | 0.157 |
| CGGCTTAG | PBM E-score | 0.0549 |
| AGTGGGTG | PBM E-score | -0.0322 |
| GCGAGGCA | PBM E-score | 0.439 |
| GAGGCCAA | PBM E-score | -0.164 |
| TCGTATAA | PBM E-score | 0.136 |
| CGCGCTGA | PBM E-score | -0.0138 |
| CCGTATCG | PBM E-score | 0.215 |
| CGGCACTC | PBM E-score | 0.365 |
| CGCATCGA | PBM E-score | 0.0903 |
| AGGCTTGC | PBM E-score | -0.31 |
| ACAAGATG | PBM E-score | -0.052 |
| AATGTGCG | PBM E-score | 0.18 |
| TATAGCGA | PBM E-score | -0.151 |
| GGAGTGAA | PBM E-score | -0.0852 |
| AGGAGGAT | PBM E-score | -0.107 |
| GGCGCTAA | PBM E-score | 0.37 |
| ACTTCTGC | PBM E-score | 0.0768 |
| AGGCACTA | PBM E-score | 0.301 |
| CGGCTTGA | PBM E-score | 0.0356 |
| ATACACTG | PBM E-score | 0.0725 |
| CACGCCGG | PBM E-score | -0.0191 |
| GTTCTGTA | PBM E-score | 0.0215 |
| ACGTATAA | PBM E-score | 0.113 |
| CAATACGG | PBM E-score | 0.32 |
| CAATACGA | PBM E-score | 0.143 |
| ATGCGGCG | PBM E-score | 0.485 |
| CATTTTGG | PBM E-score | 0.114 |
| AGTTAAGG | PBM E-score | -0.0459 |
| CCTACCTA | PBM E-score | -0.0899 |
| ACCGTATA | PBM E-score | -0.0953 |
| CTCGGCAC | PBM E-score | 0.3 |
| CCCGTAAC | PBM E-score | -0.112 |
| AGATGAGG | PBM E-score | -0.192 |
| ATTGAGGA | PBM E-score | -0.0544 |
| GCCGTCCA | PBM E-score | 0.364 |
| AGGCACTC | PBM E-score | 0.139 |
| ATTCGAAT | PBM E-score | 0.0494 |
| AGGGGCGC | PBM E-score | 0.232 |
| CAGGGCAG | PBM E-score | -0.114 |

The origin of these recorded values is the supplement of paper PMC3334620.
